Below is a list of entries, each paired with its recorded APOE RNA (% UTC) value.
- Tested on: human APOE RNA
- measurement.notes: Dose-dependent inhibition of human APOE RNA in HepG2 cells, electroporation, 50,000 cells per well, RT-PCR normalized to GAPDH (Example 4, Tables 8-10)
- Format: cell-based
- measurement.setup: 13 nM; HepG2, electroporation, 24-hour treatment
Strand notation (5' to 3'): a small letter for the sugar, then the base; units joined by * are phosphorothioate-linked, units joined directly phosphodiester-linked; [ ] holds rarer units or linkages, { } end groups; capitals alone tell only the bases. [ms] = mesyl phosphoramidate linkage; k = constrained ethyl (cEt); [5mC] = 5-methylcytosine; d = 2'-deoxy (DNA)
parameter: APOE RNA (% UTC)

| substance | parameter | unit.abbreviation | reported.result |
| --- | --- | --- | --- |
| 1746800 (k[5mC]*dT[ms]kT*dG[ms]dG[ms]kT*dG[ms]dA[ms]dA[ms]dT*d[5mC]*dT*dT*dT*dA[ms]dT*kT*dA[ms]kA*kA; antisense) [Compound 1746800] | APOE RNA (% UTC) | % UTC | 111 |
| 1746787 (k[5mC]*kT*dT[ms]dG[ms]dG[ms]kT*dG[ms]dA[ms]dA[ms]dT*d[5mC]*dT*dT*dT*dA[ms]dT*kT*kA*dA[ms]kA; antisense) [Compound 1746787] | APOE RNA (% UTC) | % UTC | 108 |
| 1753989 (k[5mC]*dT[ms]kT*dG[ms]kG*dT*dG[ms]dA[ms]dA[ms]dT*d[5mC]*dT*dT*dT*dA[ms]kT*dT[ms]kA*dA[ms]kA; antisense) [Compound 1753989] | APOE RNA (% UTC) | % UTC | 108 |
| 1746796 (k[5mC]*kT*dT[ms]dG[ms]kG*dT[ms]dG[ms]dA[ms]dA[ms]dT*d[5mC]*dT*dT*dT*dA[ms]dT*kT*dA[ms]kA*kA; antisense) [Compound 1746796] | APOE RNA (% UTC) | % UTC | 126 |
| 1746789 (k[5mC]*dT[ms]kT*dG[ms]kG*dT[ms]dG[ms]dA[ms]dA[ms]dT*d[5mC]*dT*dT*dT*dA[ms]dT*kT*kA*dA[ms]kA; antisense) [Compound 1746789] | APOE RNA (% UTC) | % UTC | 106 |
| 1746812 (k[5mC]*dT[ms]dT[ms]dG[ms]kG*kT*dG[ms]dA[ms]dA[ms]dT*d[5mC]*dT*dT*dT*dA[ms]dT*dT[ms]kA*kA*kA; antisense) [Compound 1746812] | APOE RNA (% UTC) | % UTC | 109 |
| 1746806 (k[5mC]*kT*dT[ms]dG[ms]kG*dT[ms]dG[ms]dA[ms]dA[ms]dT*d[5mC]*dT*dT*dT*dA[ms]dT*dT[ms]kA*kA*kA; antisense) [Compound 1746806] | APOE RNA (% UTC) | % UTC | 101 |
| 1746804 (k[5mC]*kT*kT*dG[ms]dG[ms]dT[ms]dG[ms]dA[ms]dA[ms]dT*d[5mC]*dT*dT*dT*dA[ms]dT*dT[ms]kA*kA*kA; antisense) [Compound 1746804] | APOE RNA (% UTC) | % UTC | 88 |
| 1746795 (k[5mC]*kT*dT[ms]kG*dG[ms]dT[ms]dG[ms]dA[ms]dA[ms]dT*d[5mC]*dT*dT*dT*dA[ms]dT*kT*dA[ms]kA*kA; antisense) [Compound 1746795] | APOE RNA (% UTC) | % UTC | 115 |
| 1747052 (k[5mC]*dT[ms]kT*kG*dG[ms]kT*dG[ms]dA[ms]dA[ms]dT*d[5mC]*dT*dT*dT*dA[ms]dT*kT*dA[ms]dA[ms]kA; antisense) [Compound 1747052] | APOE RNA (% UTC) | % UTC | 113 |
| 1746792 (k[5mC]*dT[ms]dT[ms]kG*dG[ms]kT*dG[ms]dA[ms]dA[ms]dT*d[5mC]*dT*dT*dT*dA[ms]dT*kT*kA*dA[ms]kA; antisense) [Compound 1746792] | APOE RNA (% UTC) | % UTC | 102 |
| 1746805 (k[5mC]*kT*dT[ms]kG*dG[ms]dT[ms]dG[ms]dA[ms]dA[ms]dT*d[5mC]*dT*dT*dT*dA[ms]dT*dT[ms]kA*kA*kA; antisense) [Compound 1746805] | APOE RNA (% UTC) | % UTC | 109 |
| 1747050 (k[5mC]*kT*kT*dG[ms]dG[ms]kT*dG[ms]dA[ms]dA[ms]dT*d[5mC]*dT*dT*dT*dA[ms]dT*kT*dA[ms]dA[ms]kA; antisense) [Compound 1747050] | APOE RNA (% UTC) | % UTC | 135 |
| 1746801 (k[5mC]*dT[ms]dT[ms]kG*kG*dT[ms]dG[ms]dA[ms]dA[ms]dT*d[5mC]*dT*dT*dT*dA[ms]dT*kT*dA[ms]kA*kA; antisense) [Compound 1746801] | APOE RNA (% UTC) | % UTC | 98 |
| 1746807 (k[5mC]*kT*dT[ms]dG[ms]dG[ms]kT*dG[ms]dA[ms]dA[ms]dT*d[5mC]*dT*dT*dT*dA[ms]dT*dT[ms]kA*kA*kA; antisense) [Compound 1746807] | APOE RNA (% UTC) | % UTC | 127 |
| 1747053 (k[5mC]*dT[ms]dT[ms]kG*kG*kT*dG[ms]dA[ms]dA[ms]dT*d[5mC]*dT*dT*dT*dA[ms]dT*kT*dA[ms]dA[ms]kA; antisense) [Compound 1747053] | APOE RNA (% UTC) | % UTC | 131 |
| 1746813 (k[5mC]*dT[ms]dT[ms]kG*dG[ms]kT*dG[ms]dA[ms]dA[ms]dT*d[5mC]*dT*dT*dT*dA[ms]dT*dT[ms]kA*kA*kA; antisense) [Compound 1746813] | APOE RNA (% UTC) | % UTC | 117 |
| 1746799 (k[5mC]*dT[ms]kT*dG[ms]kG*dT[ms]dG[ms]dA[ms]dA[ms]dT*d[5mC]*dT*dT*dT*dA[ms]dT*kT*dA[ms]kA*kA; antisense) [Compound 1746799] | APOE RNA (% UTC) | % UTC | 130 |
| 1746810 (k[5mC]*dT[ms]kT*dG[ms]dG[ms]kT*dG[ms]dA[ms]dA[ms]dT*d[5mC]*dT*dT*dT*dA[ms]dT*dT[ms]kA*kA*kA; antisense) [Compound 1746810] | APOE RNA (% UTC) | % UTC | 106 |
| 1746786 (k[5mC]*kT*dT[ms]dG[ms]kG*dT[ms]dG[ms]dA[ms]dA[ms]dT*d[5mC]*dT*dT*dT*dA[ms]dT*kT*kA*dA[ms]kA; antisense) [Compound 1746786] | APOE RNA (% UTC) | % UTC | 93 |
